Biological target: T1, B-cat-Halo (beta-catenin HaloTag NanoBRET construct expressed in HEK293 cells) (UniProt P35222 1-781)
T1 sequence (looked up): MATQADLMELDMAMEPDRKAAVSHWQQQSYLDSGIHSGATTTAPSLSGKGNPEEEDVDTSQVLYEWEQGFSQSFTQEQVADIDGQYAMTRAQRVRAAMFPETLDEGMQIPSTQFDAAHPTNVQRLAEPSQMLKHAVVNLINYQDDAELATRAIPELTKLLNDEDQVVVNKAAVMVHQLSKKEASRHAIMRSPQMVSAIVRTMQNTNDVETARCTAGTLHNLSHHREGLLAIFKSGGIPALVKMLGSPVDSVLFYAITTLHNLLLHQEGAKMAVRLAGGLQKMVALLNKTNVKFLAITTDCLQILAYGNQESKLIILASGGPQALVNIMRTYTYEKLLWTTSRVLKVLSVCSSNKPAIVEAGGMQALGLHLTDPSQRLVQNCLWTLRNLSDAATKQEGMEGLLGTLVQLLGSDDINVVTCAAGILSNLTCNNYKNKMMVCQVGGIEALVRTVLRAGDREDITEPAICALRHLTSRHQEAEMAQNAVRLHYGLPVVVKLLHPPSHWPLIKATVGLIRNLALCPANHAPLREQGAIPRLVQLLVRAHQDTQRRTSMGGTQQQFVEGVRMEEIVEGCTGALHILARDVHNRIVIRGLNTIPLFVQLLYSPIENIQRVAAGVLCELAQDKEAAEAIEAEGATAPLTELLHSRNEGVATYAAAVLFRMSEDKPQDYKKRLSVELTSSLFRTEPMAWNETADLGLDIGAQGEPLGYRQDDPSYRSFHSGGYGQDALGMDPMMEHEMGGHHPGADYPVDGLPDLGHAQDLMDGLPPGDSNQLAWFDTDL
Assay: cell-based or functional assay
Starred links: 1 amine or outer side, 2 acyl side, 3 side chain; linkers in the order of their positions; H or OH if unused. Positions of bridges follow the written chain, without caps; N, C: chain ends. Non-standard residues stand in square brackets, D forms with d. Primed or numbered codes have the meaning given here. PyrS2″ = (S)-3-amino-1-((pent-4-en-1-yloxy)carbonyl)pyrrolidine-3-carboxylic acid (stapling residue), C=CCCCOC(=O)N1CC[C@@](N[*:1])(C(=O)[*:2])C1; TfeGA = (S)-2-amino-3-((carboxymethyl)(2,2,2-trifluoroethyl)amino)propanoic acid, O=C([C@H](CN(CC(=O)[*:3])CC(F)(F)F)N[*:1])[*:2]; B5(3) = 2,2-bis(4-pentenyl)glycine (stitching residue), C=CCCCC(CCCC=C)(N[*:1])C(=O)[*:2]; Phe(3-COOH) = N[C@@H](Cc1cccc(C(=O)O)c1)C(=O)O; 2F3MeF = Cc1cccc(C[C@H](N[*:1])C(=O)[*:2])c1F; Phe(2-CF3) = N[C@@H](Cc1ccccc1C(F)(F)F)C(=O)O; Bta = N[C@@H](Cc1csc2ccccc12)C(=O)O; αAllylPro = C=CC[C@@]1(C(=O)O)CCCN1; tBuAla = CC(C)(C)C[C@H](N)C(=O)O; 3Thi = N[C@@H](Cc1ccsc1)C(=O)O; Abu = CC[C@H](N)C(=O)O; Aib = CC(C)(N)C(=O)O
quantity: NanoBRET Abs IC50 (µM)
Return type: number; implicit unit µM.

Lookup: Returns the measured NanoBRET Abs IC50 for the input binder. Input: Ac-[αAllylPro]D[tBuAla][B5(3)]D[TfeGA]AAFL[PyrS2″][3Thi][Bta][Me2Gln]A-NH2 (staple 1-4, 4-11) [Ac-PL3-Asp-Npg-B5-Asp-TfeGA-Ala-Ala-Phe-Leu-PyrS2-3Thi-BztA-Me2Gln-Ala-NH2]
Found: 2.5

Lookup: Returns the measured NanoBRET Abs IC50 for the input binder. Input: Ac-[αAllylPro]D[tBuAla][B5(3)]D[Phe(3-COOH)][Aib]AF[Abu][PyrS2″][Phe(2-CF3)][Bta][Me2Gln]A-NH2 (staple 1-4, 4-11) [Ac-PL3-Asp-Npg-B5-Asp-3COOHF-Aib-Ala-Phe-Abu-PyrS2-2F3MeF-BztA-Me2Gln-Ala-NH2]
Found: 6.2

Lookup: Returns the measured NanoBRET Abs IC50 for the input binder. Input: Ac-[αAllylPro]D[tBuAla][B5(3)]D[Phe(3-COOH)]AAFL[PyrS2″][Phe(2-CF3)][SbMe2NapA]Q-NH2 (staple 1-4, 4-11) [Ac-PL3-Asp-Npg-B5-Asp-3COOHF-Ala-Ala-Phe-Leu-PyrS2-2F3MeF-SbMe2NapA-Gln-NH2]
Found: 16.5

Lookup: Returns the measured NanoBRET Abs IC50 for the input binder. Input: Ac-[αAllylPro]D[tBuAla][B5(3)]D[Phe(3-COOH)][Aib]AF[Abu][PyrS2″][3Thi][Bta][Me2Gln]A-NH2 (staple 1-4, 4-11) [Ac-PL3-Asp-Npg-B5-Asp-3COOHF-Aib-Ala-Phe-Abu-PyrS2-3Thi-BztA-Me2Gln-Ala-NH2]
Found: 2.3

Lookup: Returns the measured NanoBRET Abs IC50 for the input binder. Input: Ac-[αAllylPro]D[tBuAla][B5(3)]D[Phe(3-COOH)]QAFL[PyrS2″][Phe(2-CF3)][RbMe2NapA]A-NH2 (staple 1-4, 4-11) [Ac-PL3-Asp-Npg-B5-Asp-3COOHF-Gln-Ala-Phe-Leu-PyrS2-2F3MeF-RbMe2NapA-Ala-NH2]
Found: 6.5

Lookup: Returns the measured NanoBRET Abs IC50 for the input binder. Input: Ac-[αAllylPro]D[tBuAla][B5(3)]D[Phe(3-COOH)]AAF[Abu][PyrS2″][2F3MeF][Bta][(NHEt)GlnR]A-NH2 (staple 1-4, 4-11) [Ac-PL3-Asp-Npg-B5-Asp-3COOHF-Ala-Ala-Phe-Abu-PyrS2-2F3MeF-BztA-[NHEt]GlnR-Ala-NH2]
Found: 1.8

Lookup: Returns the measured NanoBRET Abs IC50 for the input binder. Input: Ac-[αAllylPro]D[tBuAla][B5(3)]D[TfeGA]AAFL[PyrS2″][3Thi][Bta][(NHEt)GlnR]A-NH2 (staple 1-4, 4-11) [Ac-PL3-Asp-Npg-B5-Asp-TfeGA-Ala-Ala-Phe-Leu-PyrS2-3Thi-BztA-[NHEt]GlnR-Ala-NH2]
Found: 2.1
